MEASUREMENT KIND: melting point

// worked examples, melting point included
| CHEMICAL STRUCTURE | melting point |
| --- | --- |
| Cc1cc(C(=O)c2sc(NC(=O)c3ccncc3)nc2-c2ccco2)ccn1 | 223 to 225 °C |
| O=C(Nc1nc(-c2ccco2)c(C(=O)c2ccncn2)s1)c1ccncc1 | > 300 °C |
| CC(C)C(=O)c1sc(NC(=O)c2ccncc2)nc1-c1ccco1 | 179 to 182 °C |

Name the recorded melting point of the item O=C(Nc1nc(-c2ccco2)c(C(=O)C2CCOCC2)s1)c1c(F)cccc1F in your answer.
168 to 170 °C

Name the recorded melting point of the item CCn1ccc(-c2sc(NC(=O)c3ccncc3)nc2-c2ccco2)cc1=O in your answer.
245 to 248 °C
